Data provenance: patent US12577311

Reported values of Kd for individual entries
target: CAIX (UniProt Q16790 38-414)
Quick reminder: number only, in nM, skip the unit.

Worked cases, answers included:
G125 (antibody, V domains shown) VH: EVQLVESGGGVVQPGRSLRLSCAASGFTFSSYGMHWVRQAPGKGLEWVSAISGSGGSTYYADSVKGRFTISRDNAKNTLYLQMNSLRAEDTAVYYCARAAVTGGFDPWGQGTLVTVSS VL: QPGLTQPPSVSVAPGQTARITCGGDNIGRKSVHWYQQRPGQAPILVIRDDRDRPSGIPERFSGSSSVNTATLIISRVEAGDEADYYCQVWDSSSKHYVFGPGTKVTALG    40.3
G27 (antibody, V domains shown) VH: QVTLKESGGGVVQPGTSLRLSCAASGFTFSNYAMTWVRQAPGKGLEWVGLISYDGSVTHYTDSVKGRFTISRDNAKNSLYLQMNTLRADDTAVYYCARGSGYQEHWGQGTLVTVSS VL: LPVLTQPPSVSVAPGQTARITCGGNNIGSKSVEWYQQKPGQAPVLVIYYDSDRPSGIPERFSGSNSGNTATLTISRVEAGDEADYYCQVWDSSSDHHVVFGGGTKLTVLG    25.1
G45 (antibody, V domains shown) VH: QVQLVQSGGGLVRPGGSLRLSCAASGFPFSSYAMSWVRQAPGKGLEWVSAISANGGTTYYADSVKGRFTISRDNSKNTLYLQMNSLRAEDTAVYYCANNGNYRGAFDIWGQGTTVTVSS VL: QSVLTQPPSVSGAPGQRITISCTGSSSNIGAGYDVHWYQQVPGKAPKVVIYGNNNRPSGVPDRFSGSKSGASASLAITGLQTEDEADYYCQSYDKSLTWVFGGGTKVTVLG    12.5

Q: Query Kd for G106 (antibody, V domains shown) VH: EVQLVQSGGGLVQPGGSLRLSCAASGFTFSSYAMSWVRQAPGKGLEWVSAISANGGTTYYADSVKGRFTISRDNSKNTLYLQMNSLRAEDTAVYYCANNGNYRGAFDIWGQGTTVTVSS VL: QSVLTQPPSVSGAPGQRVTISCTGSSSNIGAGFDVHWYQQLPGTAPRLLIYGNNNRPSGVPDRFSGSKSGTSASLAITGLQAEDETDYFCQSYDSSLSAWVFGGGTKVTVLR
Ans: 3.2

Q: Query Kd for G57 (antibody, V domains shown) VH: QVQLVQSGGGVVQPGRSLRLSCAASGFTFSSYGMHWVRQAPGKGLEWVAVISYDGSNKYYADSVKGRFTISRDNSKNTLYLQMNSLRAEDTAVYYCAREAPYSSSLDAFDIWGQGTMVTVSS VL: QSVLTQPPSVSGAPGQRVTISCTGSSSNIGRGYNVHWYQQLPGTAPKLLIYGNSNRPSGVPDRFSGSSSGNTASLTITGAQAEDEADYYCHSRDNNGHHIFGGGTKLTVLS
Ans: 4.25

Q: Query Kd for G36 (antibody, V domains shown) VH: EVQLVQSGGGVVQPGGSLRLSCAASGFPFSSYAMSWVRQAPGKGLEWVSAISANGGTTYYADSVKGRFTISRDNSKNTLYLQMNSLRAEDTAVYYCANNGNYRGAFDIWGQGTMVTVSS VL: QSVLTQPPSVSGAPGQRVTISCTGSSSNIGAGFDVHWYQQLPGTAPKLLIYGNTNRPSGVPDRFSGSKSGTSASLAITGLQAEDETDYYCQSYDSRLSAWVFGGGTKLTVLG
Ans: 3.22
